- target: carbonic anhydrase
- assay_summary: Carbonic anhydrase inhibition
- Format: biochemical
endpoint_label: IC50 (µM)
Numbers only, in µM.

IC50 value, target or system carbonic anhydrase, for COc1cc(OC)cc(C(=O)N2CCc3cc(OS(N)(=O)=O)c(OC)cc3C2=O)c1 : 0.89

====

endpoint_label: melting point

Fill in melting point for each of the 2 compounds listed.
1. COc1cc2c(cc1OS(N)(=O)=O)CCN(C(=O)c1cccc(C#N)c1)C2=O [17 c]
2. COc1ccc(S(=O)(=O)N2CCc3cc(O)c(OC)cc3C2=O)cc1 [11 c]

result:
1. 171 to 172 °C
2. 202 to 204 °C

Fill in melting point for each of the 2 compounds listed.
1. COc1ccc(CN2CCc3cc(O)c(OC)cc3C2=O)cc1 [8 c]
2. COc1cc2c(cc1O)CCN(C(=O)c1ccc(OC)c(OC)c1)C2=O [16 e]

result:
1. 171 to 172 °C
2. 199 to 200 °C

====

endpoint_label: melting point

| compound | melting point |
| --- | --- |
| COc1cc2c(cc1O)CCN(S(=O)(=O)c1cccc(Cl)c1)C2=O [11 d] | 178 to 181 °C |

Fill in melting point for each of the 3 compounds listed.
1. COc1cc2c(cc1OS(N)(=O)=O)CCN(S(=O)(=O)c1cccc(Cl)c1)C2=O [12 d]
2. COC(=O)c1ccccc1S(=O)(=O)N1CCc2cc(OS(N)(=O)=O)c(OC)cc2C1=O [12 e]
3. COc1ccc(C(=O)N2CCc3cc(OS(N)(=O)=O)c(OC)cc3C2=O)cc1 [17 d]

result:
1. 170 to 173 °C
2. 181 to 186 °C
3. 171 to 172 °C

Fill in melting point for each of the 2 compounds listed.
1. COc1cccc(CN2CCc3cc(OS(N)(=O)=O)c(OC)cc3C2=O)c1 [9 b]
2. COc1cccc(CN2CCc3cc(O)c(OC)cc3C2=O)c1 [8 b]

result:
["139 to 140 °C", "181 to 182 °C"]

Fill in melting point for each of the 3 compounds listed.
1. COC(=O)c1ccccc1S(=O)(=O)N1CCc2cc(O)c(OC)cc2C1=O [11 e]
2. COc1cccc(S(=O)(=O)N2CCc3cc(OS(N)(=O)=O)c(OC)cc3C2=O)c1 [12 b]
3. COc1cc2c(cc1OS(N)(=O)=O)CCN(S(=O)(=O)c1ccccc1OC)C2=O [12 a]

result:
236 to 239 °C
164 to 166 °C
195 to 197 °C

====

- System: DU-145 human prostate cancer cells
- assay_summary: Antiproliferative assay (WST-1, 96 h), DU-145
- Assay type: cell-based
- experimental_conditions: in vitro antiproliferative activity, result in words
- Method: Cell lines: DU-145 (brain metastasis carcinoma of the prostate) and MDA MB-231 (metastatic pleural effusion of breast adenocarcinoma) established human cell lines were obtained from ATCC Global Bioresource Center. Cells were maintained in a 5 % CO2 humidified atmosphere at 37 °C in RPMI-1640 medium, supplemented with 10 % fetal bovine serum, penicillin, (100 U mL^−1), and streptomycin (0.1 mg mL^−1). The effect of drugs on tubule formation was assessed using an angiogenesis kit (TCS-Cellworks). […]
endpoint_label: antiproliferative activity (in words)

| compound | result |
| --- | --- |
| COc1cc2c(cc1O)CCN(C(=O)c1ccc(OC)c(OC)c1)C2 [18 a] | completely inactive |
| COc1ccc(C(=O)N2CCc3cc(O)c(OC)cc3C2=O)cc1 [16 d] | inactive |
| COc1ccc(C(=O)N2CCc3cc(OS(N)(=O)=O)c(OC)cc3C2=O)cc1 [17 d] | inactive |
| COc1ccc(C(=O)N2CCc3cc(OS(N)(=O)=O)c(OC)cc3C2)cc1OC [19 a] | completely inactive |
